studySystem: human activated kallikrein enzyme (Homo sapiens, UniProt P03952)
Sequence (P03952 391-638 limits assumed): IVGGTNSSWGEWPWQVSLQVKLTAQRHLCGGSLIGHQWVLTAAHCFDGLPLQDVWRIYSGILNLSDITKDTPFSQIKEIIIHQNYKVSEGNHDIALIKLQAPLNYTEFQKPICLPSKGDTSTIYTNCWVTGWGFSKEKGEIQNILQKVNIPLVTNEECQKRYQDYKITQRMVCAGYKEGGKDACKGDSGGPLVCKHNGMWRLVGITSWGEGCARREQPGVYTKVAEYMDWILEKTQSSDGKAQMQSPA
Sequence (P03952 20-390 partner limits assumed): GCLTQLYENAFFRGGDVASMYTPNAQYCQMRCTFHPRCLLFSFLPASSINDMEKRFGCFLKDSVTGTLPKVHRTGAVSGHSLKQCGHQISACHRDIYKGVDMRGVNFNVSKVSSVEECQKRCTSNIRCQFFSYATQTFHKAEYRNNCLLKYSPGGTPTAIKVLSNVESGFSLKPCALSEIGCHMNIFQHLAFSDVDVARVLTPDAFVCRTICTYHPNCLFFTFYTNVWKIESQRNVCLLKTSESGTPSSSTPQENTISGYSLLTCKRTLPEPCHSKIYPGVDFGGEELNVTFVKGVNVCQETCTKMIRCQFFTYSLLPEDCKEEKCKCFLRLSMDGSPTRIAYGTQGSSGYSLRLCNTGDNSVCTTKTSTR
testProtocol: Plasma kallikrein inhibition, fluorogenic PFR-AMC substrate, 500 pM activated kallikrein format
Type: biochemical
reportedConditions: 500 pM activated kallikrein, 300 uM PFR-AMC, 30 min preincubation, 10 min reaction; read-out: Primary Dose Response Assay: Average EC50
pEC50: −log10 of the molar value.
experimentalReadout: pEC50

Kindly note: human activated kallikrein enzyme (Homo sapiens, UniProt P03952), "NC(=O)c1cc(C2CC2)cn2cc(CNc3cc(NC(=O)[C@H]4C[C@@H]4c4cccc(Cl)c4)ncn3)nc12" , pEC50 value reported: 8.00 to 9.00

pEC50 on human activated kallikrein enzyme (Homo sapiens, UniProt P03952) for Cc1nc([C@H]2C[C@@H]2C(=O)Nc2cc(NCc3cn4cc(C5CC5)cc(N5CC(=O)N(C)C5=O)c4n3)ncn2)cs1 (racemic) is 8.00 to 9.00

Form field, pEC50 with human activated kallikrein enzyme (Homo sapiens, UniProt P03952), item O=C(Nc1cc(NCc2cn3cc(C4CC4)ccc3n2)ncn1)[C@@H]1C[C@@]12C(=O)Nc1ccc(Cl)cc12 (racemic) : 6.00 to 7.00
